system: SF-295 CNS; assay: NCI-60 one-dose screen, 48 h (100 = growth as untreated, 0 = no growth, -100 = all killed); conditions: 10 µM
About 83,000 compounds went through this panel and 20% of them were active in at least one assay; those are over-represented in the sample as a whole.
measurement_type: growth (%)

[[record]]
molecule = "O=C(O)C(SC(C(=O)O)c1ccccc1)c1ccccc1 (centres undefined)"
measured_number = 115

[[record]]
molecule = "Cc1ccc(N=Nc2c(N)nc(N)[nH]c2=O)cc1C"
measured_number = 112

[[record]]
molecule = "CCCCC(CCCCCC(CCCC)NCc1ccc2c(c1)OCO2)NCc1ccc2c(c1)OCO2 (centres undefined)"
measured_number = -79.7

[[record]]
molecule = "Cc1ccc(Nc2cc(C)nc(NCCCNc3ccnc4cc(Cl)ccc34)n2)cc1"
measured_number = -85.6

[[record]]
molecule = "CC(C)(C)c1ccc(N2CSC(=S)N(c3ccc(C(C)(C)C)cc3)C2)cc1"
measured_number = 99.9

[[record]]
molecule = "Nc1nccc(Nc2ccccc2)n1"
measured_number = 104

[[record]]
molecule = "Cc1cc(Nc2ccc(Cl)cc2)nc(NCCCNc2ccnc3cc(Cl)ccc23)n1"
measured_number = -68.2

[[record]]
molecule = "CCN(CC)CCOc1nc2ccccc2c2c1-c1ccc(OC)cc1C2=O"
measured_number = -7.99

[[record]]
molecule = "COc1ccc2nc3cc(Cl)ccc3c(NCCNCC(C)O)c2c1 (centres undefined)"
measured_number = 35.1

[[record]]
molecule = "CCOC(=O)C1(CC(C)C)CCOC1=O (centres undefined)"
measured_number = 99.5

[[record]]
molecule = "CN1CCC(CNc2cc(C3(C(=O)Nc4cc(C(=O)Nc5ccc(Cl)c(C(F)(F)F)c5)ccc4F)CC3)ncn2)CC1"
measured_number = -54.4

[[record]]
molecule = "CCN(CC)CCOc1nc2ccc(OC)cc2c2c1-c1ccc(OC)cc1C2=O"
measured_number = -2.73

[[record]]
molecule = "Oc1[nH]c2ccc(Cl)cc2c1/C=c1/ccc2c(c1)N=C(c1cccs1)N=2"
measured_number = 41.4

[[record]]
molecule = "Cc1nc2c(c(=O)[nH]1)OCN(Cc1ccccc1)C2"
measured_number = 107

